assay: melting temperature; fluorescence melt of hairpins on a sequencing array, two-state fit, raised by 9.35 °C to match UV melts; settings: sodium 0.088 M
Entries and their Tm
Reply numerically in °C, unit not repeated.

Examples with their reported Tm follow.
RESIDUE CODES	RECORDED ENDPOINT	UNIT OF MEASURE	OBSERVED
GCTAGCGAAAGCTCGAGC ((((((....)))..)))	Tm	°C	35.6
GATCAACGCTTGATC ((((((...))))))	Tm	°C	42
CGTGACGGAAACGTGACG (((.(((....))).)))	Tm	°C	48.9
GTATGACGAAAGTCGTAC (((.(((....))).)))	Tm	°C	53.8
GCCGCGCGAAAGCTTGGC (((..((....))..)))	Tm	°C	55.1

Can you look up the measured Tm of GTGAGATCGAAAGATCAC (((..(((....)))))) for me?
45.6

Can you look up the measured Tm of GGGAGCGGAAACGTTCCC ((((.((....)).)))) for me?
55.5

Can you look up the measured Tm of GATCAAGATCTTGATC ((((((....)))))) for me?
49.9

Can you look up the measured Tm of GCAATGCGAAAGCTTAGC ((.(.((....)).).)) for me?
36.4

Can you look up the measured Tm of GTCCGTGGAAACATGGAC ((((.((....)).)))) for me?
53.6

Can you look up the measured Tm of GACGCTGGAAACAGCGCC (.(((((....))))).) for me?
53

Can you look up the measured Tm of GATCCAGGTCTGGATC ((((((....)))))) for me?
55

Can you look up the measured Tm of GTCGTTGGAAACAGTGAC (((..((....))..))) for me?
32.4

Can you look up the measured Tm of GTAGAGTCGAAAGACTAC (((..(((....)))))) for me?
35.1
